Molecular target: Beta-lactamase TEM (Escherichia coli, UniProt P62593)
Sequence (P62593 whole entry): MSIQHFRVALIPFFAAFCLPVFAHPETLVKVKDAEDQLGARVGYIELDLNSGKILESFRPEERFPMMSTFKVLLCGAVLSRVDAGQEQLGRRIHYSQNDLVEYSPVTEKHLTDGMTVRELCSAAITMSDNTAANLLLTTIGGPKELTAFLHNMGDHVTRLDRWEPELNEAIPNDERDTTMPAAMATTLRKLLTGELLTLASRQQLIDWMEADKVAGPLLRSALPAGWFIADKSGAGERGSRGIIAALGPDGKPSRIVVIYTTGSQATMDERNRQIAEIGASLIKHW
Assay: Concentration required for its inhibitory activity against Escherichia coli JT4(TEM1) class A beta-lactamase
property_label: log10 of IC50 (log10 of the value in µM)
Heads up: the numbers are on a log10 scale; they represent IC50 in µM.

• CC/C=C\C/C=C\C/C=C\CCCCCCCc1cccc(O)c1C(=O)O = 1.13
• CCCCCCCCCCc1ccccc1C(=O)O = 1.84
• C=CC/C=C\C/C=C\CCCCCCCc1cccc(O)c1C(=O)O = 0.37

Summary: CC(C)CCCCCCCCCCCCCc1cccc(O)c1C(=O)O , Beta-lactamase TEM (Escherichia coli, UniProt P62593), log10 of IC50 = 1.43

Summary: CCCCCCCCCCCCCCCc1cccc(OC)c1C(=O)O , Beta-lactamase TEM (Escherichia coli, UniProt P62593), log10 of IC50 = 0.34
